- Test system: TO-N3 (biotin conjugate)
- MEASUREMENT_PROTOCOL: pull-down binding Z-score (relative to library population); higher = stronger binding
- MEASUREMENT_SETUP: RNA library: Library-2

SEQUENCE_CODE: GGGAUUAUCCU
pull-down binding Z-score: -0.927

SEQUENCE_CODE: CUAUCAGGCCGGUAG [DMSMaPseq_invitro_SARS-CoV-2_Motif_406]
pull-down binding Z-score: -0.672

SEQUENCE_CODE: CAACAGUUCUGUAGCGCAAUUGUG [hsa-mir-203a]
pull-down binding Z-score: 0.622

SEQUENCE_CODE: CGAGACACAGAAACAGACACCUGCCCUCGA [hsa-mir-151b]
pull-down binding Z-score: 1.21

SEQUENCE_CODE: GACGGCGCCCGCCCUGGCCCUGGC [hsa-mir-4745]
pull-down binding Z-score: 1.16

SEQUENCE_CODE: UGCUUUACUUUUAAUGGCA [hsa-mir-548k]
pull-down binding Z-score: -1.15

SEQUENCE_CODE: UUCUCGAGUCUAUGGCUCCGGCCGAGAG [hsa-mir-219a-1]
pull-down binding Z-score: 0.342

SEQUENCE_CODE: CAUGUAUGUGUAUAUACAUAUAUAUG [hsa-mir-297]
pull-down binding Z-score: 0.218

SEQUENCE_CODE: AACUCUGUUGAAUAUAAAUUGGAAUU [hsa-mir-367]
pull-down binding Z-score: -0.572

SEQUENCE_CODE: GCGCUGCCAGAAACUGGCUUUAGCGC [bulge-UUU]
pull-down binding Z-score: -0.24

SEQUENCE_CODE: GGGGUGAAGAGGAUACUUACCUG [U1snRNP5ss-12]
pull-down binding Z-score: 0.427
